- Method summary: qHTS of pediatric cancer cell lines to identify multiple opportunities for drug repurposing: Primary screen for NB-EBc1 cells (AID 1347095); also: potency is read from the fitted curve at half-maximal effect
- Test parameters: NB-EBc1 neuroblastoma viability, CellTiter-Glo luminescence, 48 h; series mostly up to 46 µM
- Procedure: Drug repurposing or repositioning has been offered as a strategy for drug development in oncology programs. This approach has special potential for childhood cancers and other rare or orphan diseases, where the expected return on new drug development has been a disincentive to pharmaceuticals. […] We employed a titration-based paradigm (quantitative high-throughput screening or qHTS), where all compounds were tested at multiple concentrations for their effect on cell viability. […]
Results filed as inconclusive are left out. The source made the active and inactive calls. Calls follow the shape of the dose curve; as a rule, active = well fitted cell-killing curve with a large enough effect; inconclusive = small, poorly fitted or top-dose-only effect; inactive = no such curve, though single readings can be large or run the other way.
Readout: Potency

// below: answered compounds
INSERT INTO results (compound, readout, readout_value) VALUES
  ('O=C(O)Cc1ccc(-c2ccccc2)cc1', 'Potency', 'inactive'),
  ('O=C(O)c1ccccc1Nc1cccc(C(F)(F)F)c1', 'Potency', 'inactive'),
  ('CCOc1ccc2nc(S(N)(=O)=O)sc2c1', 'Potency', 'inactive'),
  ('Oc1c(Br)cc(Br)c2cccnc12', 'Potency', '10.6 µM (active)'),
  ('Cc1ccc2c(n1)Oc1ccc(C(C)C(=O)OCC(=O)N(C)C)cc1C2 (stereo unspecified)', 'Potency', 'inactive');

Attention now turns to another entry.
Ask: Potency for "CC(=O)c1ccc(OCC(=O)N2CCCCC2)cc1" ?
Result: inactive
